tested on: UACC-257; experiment: NCI tumour cell line growth inhibition, 48 h
Counter-ions that a name gives are not always drawn. Activity calls are given as the source filed them. Cut-off read from the data, not from the text of the source: active = GI50 up to about 1.1 µM and inactive = higher.
Classes used: active, inactive

compound: O=S1(=O)OCc2ccccc21
class: inactive

compound: c1cc2nnc1SCCCSc1ccc(nn1)SCCCSc1ccc(nn1)SCCCS2
class: inactive

compound: C#CC1(O)CCC2[C@@H]3CCc4cc(Oc5nc(F)nc(-c6c7ccccc7c(SCC)n6CCC)n5)ccc4C3CC[C@@]21C (some centres undefined)
class: inactive

compound: Brc1ccc2[nH]cc(-c3nc(-c4c[nH]c5ccccc45)cs3)c2c1
class: inactive

compound: CCC(C)C(C(=O)N/N=C1/SCC(=O)N1C)C(=O)N/N=C1/SCC(=O)N1C (centres undefined)
class: inactive

compound: CN(C)CC1CCCC(CN(C)C)C1OC(=O)c1ccccc1 (centres undefined)
class: inactive

compound: O=C1c2ccccc2-c2ccc(N(Cc3ccc(Br)cc3)Cc3ccc(Br)cc3)cc21
class: inactive

compound: CC(C)(C)OC(=O)NCC(=O)N1CCCN(C(=O)CNC(=O)OC(C)(C)C)CC1
class: inactive

compound: O=C1C(=Cc2cccc(Cl)c2)N=C(c2ccccc2)N1n1c(-c2ccccc2)nc2ccccc2c1=O
class: inactive

compound: CCn1c(SCC(=O)N/N=C2\SCC(=O)N2c2ccc(C)cc2)nc2ccccc2c1=O
class: inactive

compound: OC[C@H]1O[C@@H](n2cnc3c(S)ncnc32)[C@H](O)[C@@H]1O
class: inactive

compound: CC(=O)N(C)c1ccc(Nc2cc(C)nc3ccc4nc[nH]c4c23)cc1 [ACODAZOLE HYDROCHLORIDE]
class: inactive

compound: CN(C)c1ccc(/C=C/c2nc3ccccc3s2)cc1
class: inactive

compound: O=C1CSC(c2ccc([N+](=O)[O-])cc2)N1c1ccc(-n2c(-c3ccccc3)nc3ccccc3c2=O)cc1 (centres undefined)
class: inactive

compound: C[C@@H]1S[C@H](c2ccccc2F)N2Cc3ccccc3N=C12
class: inactive

compound: O=C(C1OC1c1ccc(O)cc1)C12CC3CC(CC(C3)C1)C2 (centres undefined)
class: inactive

compound: CC(C)C1=CC(=O)C(C)(C2C(O)CC3(C)C4CC=C5C(CCC(OC6OC(CO)C(O)C(O)C6OC6OC(C)C(O)C(O)C6O)C5(C)C)C4(C)C(=O)CC23C)O1 (centres undefined)
class: inactive

compound: O=C1C(Br)=CC2(C=C1Br)CCNC1=C2C2=NCCc3c[nH]c(c32)C1=O
class: active

compound: O=[N+]([O-])c1cc(/C=N\NS(=O)(=O)c2ccc(Cl)cc2)c(O)c([N+](=O)[O-])c1
class: inactive

compound: COC(=O)[C@H](Cc1c[nH]c2ccccc12)NP(=O)(O)OC[C@H]1O[C@@H](n2cc(C)c(=O)[nH]c2=O)C[C@@H]1N=[N+]=[N-]
class: inactive

compound: CC(C)(C)C(=O)Nc1c(C=O)ccc2[nH]cnc12
class: inactive

compound: [N-]=[N+]=Nc1ccccc1-c1ccccc1[N+](=O)[O-]
class: inactive

compound: CCCCCCCCC1=CCC(CN(C)C)C1=O (centres undefined)
class: inactive

compound: CC(C)CC(NC(=O)C(COc1ccc([N+](=O)[O-])cc1)Cc1ccccc1)C(=O)Nc1ccccc1 (centres undefined)
class: inactive

compound: C[C@@]1(CBr)C[C@@](C)(/C=C/Cl)[C@@H](Cl)C[C@H]1Cl
class: inactive

compound: O=C(CC1C(=O)Nc2ccccc2[S+]1[O-])Nc1cc(Cl)ccc1Cl (centres undefined)
class: inactive

compound: O=C(C[n+]1ccccc1)NNC(=O)/C(=C/c1ccc2c(c1)OCO2)NC(=O)c1ccccc1
class: inactive

compound: CC(=O)CCCCCCCCCCCC[C@@H]1CC[C@H](C)[C@H](O)N1
class: inactive

compound: COc1ccccc1/C=C1\C(=O)N(C(=O)c2ccc(NC(C)=O)cc2)N=C1C
class: inactive

compound: O=c1oc2cc(O)ccc2c2[nH]c3cc(O)ccc3c12
class: inactive

compound: NC(=O)C(=O)N/N=C1/c2ccccc2CC1C1(O)C(=O)Nc2c(Cl)cc(Cl)cc21 (centres undefined)
class: inactive

compound: COc1cccc(C(C#N)NNC(=O)c2c(Cl)c(Cl)c(Cl)c(Cl)c2-c2nc3cc(C(=O)c4ccccc4)ccc3[nH]2)c1O (centres undefined)
class: inactive

compound: O=c1c2cc(-c3ccccc3)cnc2sn1-c1ccc(Oc2ccccc2)cc1
class: inactive

compound: O=[N+]([O-])c1nccn1CC1OC(n2ccnc2[N+](=O)[O-])C(O)C(O)C1O (centres undefined)
class: inactive

compound: Cc1ccc(/C=c2\c(=O)[nH]c3nc4ccccc4c(=O)n23)cc1
class: inactive

compound: CC(C)C1=CC2=CC[C@@H]3[C@](C)(CCC[C@@]3(C)C(=O)O)[C@H]2CC1
class: inactive

compound: CCOC(=O)/C=C(/C(=O)OCC)n1cc(C)c(=O)n(Cc2cnnn2CCCCOC(C)=O)c1=O
class: inactive

compound: O=C1C(Cl)=C(Cl)C(=O)N1c1ccccc1Cl
class: inactive

compound: C(=C/CCCN1O[C@@H](CCCCCCCCc2cccnc2)[C@H]2CCC[C@H]21)/CCCCCCCCCc1cccnc1
class: inactive
